# study system: human recombinant NK1 receptors (Homo sapiens)
# Sequence (P25103 whole entry): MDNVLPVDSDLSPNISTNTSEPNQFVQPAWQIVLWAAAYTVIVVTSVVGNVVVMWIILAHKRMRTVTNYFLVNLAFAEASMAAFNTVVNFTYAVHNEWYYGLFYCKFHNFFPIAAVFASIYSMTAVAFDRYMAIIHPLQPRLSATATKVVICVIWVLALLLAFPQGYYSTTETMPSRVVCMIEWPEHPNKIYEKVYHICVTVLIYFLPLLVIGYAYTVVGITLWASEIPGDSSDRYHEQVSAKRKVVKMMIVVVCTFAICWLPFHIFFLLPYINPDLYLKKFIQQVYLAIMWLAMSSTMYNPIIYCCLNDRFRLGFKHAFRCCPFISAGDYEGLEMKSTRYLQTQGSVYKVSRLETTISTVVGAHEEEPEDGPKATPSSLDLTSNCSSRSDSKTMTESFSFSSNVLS
# test method notes: cell-based
# cond: Intracellular Ca^2+ pEC50, CHO-hNK1 cells; mean ± SD
pEC50: −log10 of the molar value. Non-standard residues stand in square brackets, D forms with d. Residues, ends and D or L forms follow the SMILES beside them. Nle = CCCC[C@H](N)C(=O)O; βAla = NCCC(=O)O

compound: CCCC[C@H](NC(=O)[C@H](CC(C)C)N(C)C(=O)CNC(=O)[C@@H](NC(=O)[C@H](Cc1ccccc1)NC(=O)[C@H](CCCCN)NC(=O)[C@@H](N)CC(=O)O)C(C)C)C(N)=O [[Lys^5,MeLeu^9,Nle^10]-NKA(4-10), Asp-Lys-Phe-Val-Gly-Leu(NMe)-Nle-NH2]
pEC50: 7.81
--
compound: CCCC[C@H](NC(=O)[C@H](CC(C)C)NC(=O)CCNC(=O)[C@@H](NC(=O)[C@H](Cc1ccccc1)NC(=O)[C@H](CCCNC(=N)N)NC(=O)[C@@H](N)CC(=O)O)C(C)C)C(N)=O [[Arg^5,β-Ala^8,Nle^10]-NKA(4–10), Asp-Arg-Phe-Val-[β-Ala]-Leu-Nle-NH2] (H-DRFV[βAla]L[Nle]-NH2)
pEC50: 7.53
--
compound: CCCC[C@H](NC(=O)[C@H](CC(C)C)NC(=O)CCNC(=O)[C@@H](NC(=O)[C@H](Cc1ccccc1)NC(=O)[C@H](CCCCN)NC(=O)[C@@H](N)CC(=O)O)C(C)C)C(N)=O [[Lys^5,β-Ala^8,Nle^10]-NKA(4–10), Asp-Lys-Phe-Val-[β-Ala]-Leu-Nle-NH2] (H-DKFV[βAla]L[Nle]-NH2)
pEC50: 7.11
